Biological target: Hypoxia-inducible factor 1-alpha (Homo sapiens) (UniProt Q16665)
Sequence (Q16665 whole entry, looked up): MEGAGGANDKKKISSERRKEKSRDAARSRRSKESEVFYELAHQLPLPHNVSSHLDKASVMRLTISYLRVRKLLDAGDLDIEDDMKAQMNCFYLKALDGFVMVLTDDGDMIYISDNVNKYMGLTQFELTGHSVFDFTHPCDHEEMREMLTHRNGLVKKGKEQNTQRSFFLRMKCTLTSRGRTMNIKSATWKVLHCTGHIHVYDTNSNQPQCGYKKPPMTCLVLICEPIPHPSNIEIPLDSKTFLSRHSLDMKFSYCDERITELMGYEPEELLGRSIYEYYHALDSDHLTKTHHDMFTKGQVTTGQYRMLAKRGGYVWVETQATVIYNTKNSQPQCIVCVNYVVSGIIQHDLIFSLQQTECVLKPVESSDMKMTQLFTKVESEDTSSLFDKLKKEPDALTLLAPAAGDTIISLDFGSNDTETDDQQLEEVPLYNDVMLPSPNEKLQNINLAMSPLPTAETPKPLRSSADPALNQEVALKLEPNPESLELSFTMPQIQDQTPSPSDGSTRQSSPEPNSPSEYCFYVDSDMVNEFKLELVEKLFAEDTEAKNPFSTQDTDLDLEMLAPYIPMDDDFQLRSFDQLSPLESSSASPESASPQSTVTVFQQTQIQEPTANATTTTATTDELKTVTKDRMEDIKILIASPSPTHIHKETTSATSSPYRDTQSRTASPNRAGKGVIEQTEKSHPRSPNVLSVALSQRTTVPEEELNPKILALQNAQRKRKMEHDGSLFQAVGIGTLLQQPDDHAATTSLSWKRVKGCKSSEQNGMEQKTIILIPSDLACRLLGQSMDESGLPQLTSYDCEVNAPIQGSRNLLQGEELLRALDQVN
Assay: HIF-2a and HIF-1a reporter inhibition panel, dose response, selectivity assay for HIF-2a inhibitor project, cell-based, luminescence (AID 651581)
Conditions: HIF-1a, run 1
# IC50 listing for each entry below

O=C(O)c1cccc(N/N=C/c2cccs2)c1	> 99 µM
COC(=O)COc1ccc(-c2nccc(-c3ccc(Br)cc3)n2)cc1	> 99 µM
CSc1ccc(/C=N/Nc2cccc(C(=O)O)c2)cc1	> 99 µM

Consider the additional molecule presented here.
Form field IC50, entry "CCOC(=O)Cc1csc(N/N=C/c2ccc(C(F)(F)F)cc2)n1" : < 10 µM

====

Biological target: Endothelial PAS domain-containing protein 1 (Homo sapiens) (UniProt Q99814)
Test: HIF-2a and HIF-1a reporter inhibition panel, dose response, selectivity assay for HIF-2a inhibitor project, cell-based, luminescence (AID 651581)
Conditions: HIF-2a PANC, run 2
measured attribute: IC50

Answered examples (2):
Cc1ccc(C)c(S(=O)(=O)ON2C(=O)c3ccccc3C2=O)c1	> 99 µM
O=[N+]([O-])C1C(c2ccccc2)C12c1ccccc1-c1ccccc12 (stereo not drawn)	< 3 µM

We now examine a further compound.
Notebook: "N#CCC(=O)N/N=C\c1cccc(OC/C=C/c2ccccc2)c1" , IC50 read as < 30 µM

====

Target: Hypoxia-inducible factor 1-alpha (Homo sapiens) (UniProt Q16665)
Experiment: HIF-2a and HIF-1a reporter inhibition panel, dose response, selectivity assay for HIF-2a inhibitor project, cell-based, luminescence (AID 651581)
Conditions: HIF-1a, run 1
pIC50: −log10 of the molar value.
measured attribute: pIC50

CS(=O)(=O)c1ccc(-c2cn3cc(C(=O)O)ccc3n2)cc1	< 4.00
N#CCC(=O)N/N=C\c1cccc(OC/C=C/c2ccccc2)c1	< 4.00

Field pIC50 (system: Hypoxia-inducible factor 1-alpha (Homo sapiens) (UniProt Q16665)) for entry "Cc1ccc(C)c(S(=O)(=O)ON2C(=O)c3ccccc3C2=O)c1" = < 4.00

====

List of IC50 values.
Target: Endothelial PAS domain-containing protein 1 (Homo sapiens) (UniProt Q99814)
Experiment: HIF-2a and HIF-1a reporter inhibition panel, dose response, selectivity assay for HIF-2a inhibitor project, cell-based, luminescence (AID 651581)
Conditions: HIF-2a PANC, run 1

Record excerpt, results attached:
O=C1C=C(c2ccccc2)C(=O)N1Nc1ccccc1	> 99 µM
O=C(O)c1cccc(-c2nnn(Cc3ccccc3Cl)n2)c1	> 99 µM
O=S(=O)(Nc1cccc2cccnc12)c1ccccc1	> 99 µM
CCOc1ccc(OCc2cccc(C(=O)N3CCOCC3)c2)cc1	> 99 µM
O=C(O)c1cccc(-c2nc3ccccc3[nH]2)c1	> 99 µM

Data point: "COc1ccc(OCc2cccc(C(=O)O)c2)cc1" ; IC50 = > 99 µM

The recorded IC50 for "O=C(Nc1ccc(NC(=S)NC(=O)c2ccco2)cc1)c1ccc(Br)cc1" is > 99 µM

====

Each item that follows carries a reported IC50.
Molecular target: Endothelial PAS domain-containing protein 1 (Homo sapiens) (UniProt Q99814)
Test: HIF-2a and HIF-1a reporter inhibition panel, dose response, selectivity assay for HIF-2a inhibitor project, cell-based, luminescence (AID 651581)
Conditions: HIF-2a PANC, run 1

CC(=O)N/N=C\c1cccc(OC/C=C/c2ccccc2)c1	> 99 µM
COc1ccc(OCc2cccc(C(=O)Nc3cc(C)on3)c2)cc1	> 99 µM
O=C(O)c1cc(N/N=C/c2ccc3c(c2)OCCO3)ccc1Cl	> 99 µM

IC50 measured on "CCOC(=O)Cc1csc(NC(=S)NC(=O)c2ccc(F)cc2)n1" = > 99 µM

Field IC50 (entry O=[N+]([O-])C1C(c2ccccc2)C12c1ccccc1-c1ccccc12 (stereo unspecified) ) reads > 99 µM

"O=C(Nc1cc(S(=O)(=O)N2CCOCC2)ccc1Cl)c1cc([N+](=O)[O-])ccc1Cl" yielded IC50 of > 99 µM

Record CC(C)(C)c1ccc(-c2noc(CCC(=O)NCC3CCCO3)n2)cc1 (stereo unspecified) , field IC50: < 3 µM

The reported value for CCOC(=O)c1sc(NC(=O)c2cc3c(s2)CCC(C)C3)nc1C (stereo unspecified) in terms of IC50 is < 1 µM

// IC50 lookup, molecule = "FC(F)(F)c1cnc(NNC(=S)Nc2ccccc2)c(Cl)c1" , result: 1.23 µM

Noted for Cc1nc2cc(-c3cccc(F)c3)nn2c(C)c1CCC(=O)NC(C)c1ccc2c(c1)OCCO2 (stereo unspecified) : its IC50 reads 41.1 µM

Per the record, "O=C1C=CC(=O)N1c1cccc(-c2ccccc2)c1" has IC50 of > 99 µM

For record "Cc1ccc(C(C)C)c(OCc2ccc(-c3nnco3)cc2)c1" the listed IC50 is > 99 µM

"CN(C)c1c([N+](=O)[O-])cc(N2C(=O)C=CC2=O)cc1[N+](=O)[O-]" has a reported IC50 of 22.2 µM

So, "CCOC(=O)Cc1csc(NC(=S)NC(=O)c2ccccc2C)n1" ? Its IC50 was > 99 µM

Query "COC(=O)COc1ccc(-c2nccc(-c3ccc(Br)cc3)n2)cc1" yields IC50 of 6.31 µM

Record "COC(=O)c1cccc(NC(=O)NC(=O)c2ccccc2Cl)c1" . Reported IC50: 17.6 µM
